# Tested on: DU-145 prostate
# Measurement protocol: NCI tumour cell line growth inhibition, 48 h
Assay endpoint: TGI

compound=C/C(=C\COP(=O)(O)OP(=O)(O)O)CC/C=C(\C)CNc1ccc([N+](=O)[O-])cc1 test_value="> 100 µM"
compound="CC(CCC(=O)O)[C@H]1CCC2[C@H]3C(CC(=O)[C@@]21C)[C@@]1(C)CCC(O)C[C@H]1C[C@@H]3O (stereo not given in full)" test_value="> 100 µM"

Record request: TGI value, item O=C(Nc1ccc(Br)c(Cl)c1)c1cc(F)ccc1O
> 50 µM

Record request: TGI value, item Cc1ccnc2nc3[nH]c4ccccc4c3cc12
> 100 µM

Record request: TGI value, item Cc1nc2ccc(N=NN(C)C)cc2[nH]1
> 100 µM

Record request: TGI value, item COc1ccc(Nc2ccnc(NCCCNc3ccnc4cc(Cl)ccc34)n2)cc1
10.7 µM

Record request: TGI value, item COC(=O)C(Cc1c[nH]c2ccccc12)NP(=O)(O)OCC1OC(n2cc(F)c(=O)[nH]c2=O)CC1O (stereo not given)
> 100 µM

Record request: TGI value, item N#CC(C#N)=C1CCCCc2ccc([N+](=O)[O-])cc21
> 100 µM

Record request: TGI value, item CC(C)=CCC/C(C)=C/CC/C(=C/COP(=O)(OCc1ccc([N+](=O)[O-])o1)N(C)CCCCCl)C(C)(C)C (stereo not given)
9 µM

Record request: TGI value, item CCOC(=O)c1c(NC(=O)c2ccc(OC)cc2)sc2c1CCCC2
> 100 µM
